Where do these numbers come from? They come from PubChem BioAssay (NCATS).

assay: AP1 Signaling Pathway (AID 357); conditions: ME-180 (cervical carcinoma) AP-1-bla reporter, EGF-induced, beta-lactamase ratio, 5 h; at 7.69 µM (top of the series) unless noted;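 note: ME-180 reporter cells stimulated with EGF at its EC50 level; % is set by controls: 0 for no effect and ±100 for the full control effect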
Results filed as inconclusive are left out. Active and inactive are the calls of the source. Calls come from the whole dose curve; as a rule, active = well fitted curve in either direction with a large enough effect (not every such curve was filed as active); inconclusive = small, poorly fitted or top-dose-only effect, or another doubt; inactive = flat fitted curve, though single readings scatter.
measurement.label: activity change, negative = inhibition

Field: example entries. Status: answers known.
compound=COc1ccc2c(Cl)cc(NC(=S)Nc3ccccc3)nc2c1 observed="9.58% (inactive)"
compound=CC1(C)N=C(N)N=C(N)N1c1cccc(OCc2cccc(N)c2)c1 observed="11.8% (inactive)"
compound=COc1ncc2nc(CCc3ccccc3)c(=O)n(C)c2n1 observed="-29.7% (inactive)"
compound=Oc1ccc(Cc2cc(Cl)cc(Cl)c2O)cc1Cl observed="-21.8% (inactive)"
compound=O=C1c2ccccc2-c2ccc(N(Cc3ccc(Br)cc3)Cc3ccc(Br)cc3)cc21 observed="-16.3% (inactive)"

The measured activity change, negative = inhibition associated with O=C(O)c1cccc2cccc(-c3cccc4cccc(C(=O)O)c34)c12 reads 4.88% (inactive)

The measured activity change, negative = inhibition associated with O=P(O)(CCP(=O)(O)c1ccccc1)c1ccccc1 reads -9.71% (inactive)

The measured activity change, negative = inhibition associated with COc1cc([C@@H](O)CO)ccc1OS(=O)(=O)O reads 6.76% [at 38 µM] (inactive)
